test: adipocyte viability effects, profiling panel, cell-based, 3T3-L1 adipocytes, calcein-AM fluorescence, 48 h, basal (AID 1163); details: 3T3-L1 adipocytes viability, higher = more signal; also: test concentration not given here
Please map values of z-score to classes as shown: lower level: < -0.3; middle level: ≥ -0.3 and < 0.3; upper level: ≥ 0.3

>  <Compound>
CCCC=C(CCC)[C@@H](NC(=O)CCc1ccccc1)c1ccc(C(F)(F)F)cc1

>  <Qualitative label>
middle level

$$$$
>  <Compound>
CC(C)CCC[C@@H](C)[C@H]1CC[C@@]2(C)C3=C(CC[C@]12C)[C@@]1(C)CC[C@H](OC(=O)c2ccccc2)C(C)(C)C1CC3 (stereo partly drawn)

>  <Qualitative label>
upper level

$$$$
>  <Compound>
COc1ccc(C(O)C2C=CC3C(=O)N(c4ccccc4)C(=O)C3N2Nc2ccccc2F)cc1 (stereo not drawn)

>  <Qualitative label>
upper level

$$$$
>  <Compound>
C=CCC(OC(C)=O)[C@@H]1[C@@H](N(Cc2ccc(-c3ccccc3)cc2)C(=O)c2ccc(C)cc2)c2cc(OCCCO)ccc2N1C(=O)Cc1ccc2ccccc2c1 (stereo partly drawn)

>  <Qualitative label>
upper level

$$$$
>  <Compound>
CCCCNC(=O)c1ccc(C#C[Si](C(C)C)(C(C)C)C(C)C)c(OC(C)=O)c1

>  <Qualitative label>
upper level

$$$$
>  <Compound>
COc1ccc([Si](C)(C)[C@H]2[C@H](CC(=O)N3Cc4ccccc4C[C@H]3CO)O[C@@]3(C(=O)N(Cc4ccc(N5C(=O)c6cccc7cccc5c67)cc4)c4ccccc43)[C@@H]2C)cc1

>  <Qualitative label>
upper level

$$$$
>  <Compound>
CCCNC(=O)[C@@]1(C)c2ccccc2C(=O)N(Cc2ccccc2)[C@H]1c1ccc(CO)cc1

>  <Qualitative label>
upper level

$$$$
>  <Compound>
CCOC(=O)C[C@H]1[C@H](OC(=O)c2ccccc2-c2ccccc2)[C@@H](NC(=O)c2ccc3ccccc3n2)c2cc(OCCCO)ccc2N1C(=O)c1ccccc1

>  <Qualitative label>
middle level

$$$$
>  <Compound>
C=C(COC)/C(=C/C[C@@H](OC(=O)c1ccncc1)c1ccccc1OCCO)c1cc(C(=O)OC)ccc1OC

>  <Qualitative label>
middle level

$$$$
>  <Compound>
COCCCNC(=O)[C@@]1(c2ccc([N+](=O)[O-])cc2)CC(=O)N(CC23CC4CC(CC(C4)C2)C3)[C@@H]1c1ccc(CO)cc1I

>  <Qualitative label>
lower level

$$$$
>  <Compound>
C[C@]1(C(=O)NCC(F)(F)F)c2ccccc2C(=O)N(Cc2ccccc2)[C@H]1c1ccc(CO)cc1

>  <Qualitative label>
middle level

$$$$
>  <Compound>
CN1C=C(C(=O)OCCS(C)(=O)=O)C(C(=O)OCCS(C)(=O)=O)=CC(c2ccc(CO)cc2)=CC1c1cccs1 (stereo not drawn)

>  <Qualitative label>
lower level

$$$$
>  <Compound>
CC(C)CNC(=O)[C@@H]1c2ccccc2C(=O)N(C2CCCCC2)[C@H]1c1ccc(CO)cc1

>  <Qualitative label>
middle level

$$$$
>  <Compound>
C=C(C)C1CCC(C(O)C2C=CC3C(=O)N(C)C(=O)C3N2Nc2cc(OC)c(OC)c(OC)c2)CC1 (stereo not drawn)

>  <Qualitative label>
lower level

$$$$
>  <Compound>
Cc1c(NC(=O)/C(C#N)=C/c2ccccc2Cl)c(=O)n(-c2ccccc2)n1C

>  <Qualitative label>
middle level

$$$$
>  <Compound>
C=C(/C(=C/C[C@H](OC(=O)c1ccncc1)c1cccc(OCCO)c1)c1cnc2ccccc2c1)C(C)C

>  <Qualitative label>
lower level

$$$$
>  <Compound>
CC(C)CNC(=O)[C@@]1(C)c2ccccc2C(=O)N(Cc2cc(C(F)(F)F)cc(C(F)(F)F)c2)[C@H]1c1ccc(CO)cc1

>  <Qualitative label>
lower level

$$$$

The values you see were collected from PubChem BioAssay.
